system: mice bearing PSMA-expressing LNCAP cancer xenografts; assay: Biodistribution of 68Ga-labeled compounds; format: in vivo; settings: 1 h post-injection
REPORTED_PROPERTY: Heart uptake (% ID/g)
One number for each entry, in % ID/g.

Cc1ccc(CCCC(=O)NCC(=O)N[C@@H](CCCCNC(=O)CN2CCN(CC(=O)[O-])CCN(CC(=O)[O-])CCN(CC(=O)[O-])CC2)C(=O)NC[C@H]2CC[C@H](C(=O)N[C@@H](Cc3ccc4ccccc4c3)C(=O)NCCCC[C@H](NC(=O)N[C@@H](CCC(=O)O)C(=O)O)C(=O)O)CC2)cc1.[68Ga+3] [^68Ga-HTK03090] ... 3.95
O=C([O-])CN1CCN(CC(=O)[O-])CCN(CC(=O)NCC2CCC(C(=O)NC(Cc3c4ccccc4cc4ccccc34)C(=O)NCCCCC(NC(=O)NC(CCC(=O)O)C(=O)O)C(=O)O)CC2)CCN(CC(=O)[O-])CC1.[68Ga+3] (stereo not shown) [^68Ga-HTK03041] ... 1.82
O=C([O-])CN1CCN(CC(=O)[O-])CCN(CC(=O)NCCCC[C@H](NC(=O)CNC(=O)CCCc2ccc(F)cc2)C(=O)NC[C@H]2CC[C@H](C(=O)N[C@@H](Cc3ccc4ccccc4c3)C(=O)NCCCC[C@H](NC(=O)N[C@@H](CCC(=O)O)C(=O)O)C(=O)O)CC2)CCN(CC(=O)[O-])CC1.[68Ga+3] [^68Ga-HTK03085] ... 1.46
Nc1ccc(CCCC(=O)NCC(=O)N[C@@H](CCCCNC(=O)CN2CCN(CC(=O)[O-])CCN(CC(=O)[O-])CCN(CC(=O)[O-])CC2)C(=O)NC[C@H]2CC[C@H](C(=O)N[C@@H](Cc3ccc4ccccc4c3)C(=O)NCCCC[C@H](NC(=O)N[C@@H](CCC(=O)O)C(=O)O)C(=O)O)CC2)cc1.[68Ga+3] [^68Ga-HTK03087] ... 0.52
O=C([O-])CN1CCN(CC(=O)[O-])CCN(CC(=O)NCCCC[C@H](NC(=O)CNC(=O)CCCc2ccc(I)cc2)C(=O)NC[C@H]2CC[C@H](C(=O)N[C@@H](Cc3ccc4ccccc4c3)C(=O)NCCCC[C@H](NC(=O)N[C@@H](CCC(=O)O)C(=O)O)C(=O)O)CC2)CCN(CC(=O)[O-])CC1.[68Ga+3] [^68Ga-HTK03024] ... 6.53
COc1ccc(CCCC(=O)NCC(=O)N[C@@H](CCCCNC(=O)CN2CCN(CC(=O)[O-])CCN(CC(=O)[O-])CCN(CC(=O)[O-])CC2)C(=O)NC[C@H]2CC[C@H](C(=O)N[C@@H](Cc3ccc4ccccc4c3)C(=O)NCCCC[C@H](NC(=O)N[C@@H](CCC(=O)O)C(=O)O)C(=O)O)CC2)cc1.[68Ga+3] [^68Ga-HTK03086] ... 2.76

Here is the next item to consider.
Q: # input compound: O=C([O-])CN1CCN(CC(=O)[O-])CCN(CC(=O)NCCCC[C@H](NC(=O)CNC(=O)CCCc2ccccc2)C(=O)NC[C@H]2CC[C@H](C(=O)N[C@@H](Cc3ccc4ccccc4c3)C(=O)NCCCC[C@H](NC(=O)N[C@@H](CCC(=O)O)C(=O)O)C(=O)O)CC2)CCN(CC(=O)[O-])CC1.[68Ga+3] [^68Ga-HTK03056] ; wanted: its Heart uptake
A: 1.29
